These measurements were taken from ChEMBL document CHEMBL4334524.

assay: Apparent permeability from basolateral to apical side in human Caco2 cells at 20 uM incubated for […] by LC-MS/MS analysis; assay type: ADME, cell-based; details: Caco-2
Property: Papp B→A at […], 20 µM (×10⁻⁶ cm/s)
Numeric answer only, unit ×10⁻⁶ cm/s assumed.

| Chemical String | Papp B→A at […], 20 µM [×10⁻⁶ cm/s] |
| --- | --- |
| N[C@@H](CC(=O)NC1(c2nc3ccc(OCC(=O)NCCS(=O)(=O)O)cc3s2)CCS(=O)(=O)CC1)Cc1cc(F)c(F)cc1F.O=C(O)C(F)(F)F | 0.01 |

Papp B→A at […], 20 µM recorded for this compound, "N[C@@H](CC(=O)NC1(c2nc3ccc(OCC(=O)NC[C@H](O)[C@@H](O)[C@@H](O)[C@H](O)CO)cc3s2)CCS(=O)(=O)CC1)Cc1cc(F)c(F)cc1F.O=C(O)C(F)(F)F" , is 0.001

Briefly, Papp B→A at […], 20 µM measured for "N[C@@H](CC(=O)N1CCn2c(nnc2C(F)(F)F)C1)Cc1cc(F)c(F)cc1F" : 12.2

====

test: Apparent permeability from basolateral to apical side in human Caco2 cells at 20 uM incubated for […] by LC-MS/MS analysis; format: ADME, cell-based; conditions: Caco-2
Property: Papp B→A at […], 20 µM (×10⁻⁶ cm/s)
Write the value in ×10⁻⁶ cm/s as a bare number.

| Chemical String | Meas Value |
| --- | --- |
| C[N+](C)(C)CCNC(=O)CCCCCOc1ccc2nc(C3(NC(=O)C[C@H](N)Cc4cc(F)c(F)cc4F)CCS(=O)(=O)CC3)sc2c1.O=C(O)C(F)(F)F.O=C([O-])C(F)(F)F | 0.11 |
| N[C@@H](CC(=O)NC1(c2nc3ccc(OCCCCCC(=O)NCCS(=O)(=O)O)cc3s2)CCS(=O)(=O)CC1)Cc1cc(F)c(F)cc1F.O=C(O)C(F)(F)F | 0.59 |
| C[N+](C)(C)CCNC(=O)COc1ccc2nc(C3(NC(=O)C[C@H](N)Cc4cc(F)c(F)cc4F)CCS(=O)(=O)CC3)sc2c1.O=C(O)C(F)(F)F.O=C([O-])C(F)(F)F | 0.004 |

"N[C@@H](CC(=O)NC1(c2nc3ccc(OCCCCCC(=O)NC[C@H](O)[C@@H](O)[C@@H](O)[C@H](O)CO)cc3s2)CCS(=O)(=O)CC1)Cc1cc(F)c(F)cc1F.O=C(O)C(F)(F)F" has a reported Papp B→A at […], 20 µM of 0.27

====

experiment: Stability in human intestinal S9 fractions assessed as phase I and phase II enzymes-mediated generation of systemic metabolites at 0.1 uM incubated at 37 degC for 10 mins by LC-MS/MS analysis; type: ADME, subcellular, Intestine, S9 fraction; conditions: s9, 10 min
Property: Stability

| Chemical String | Meas Value |
| --- | --- |
| C[C@]12CC[C@H]3[C@@H](CCC4=CC(=O)CC[C@@]43C)[C@@H]1CC[C@@H]2O | Unstable |
| O=c1ccc2ccc(O)cc2o1 | Unstable |
| N[C@@H](CC(=O)NC1(c2nc3ccc(OCC(=O)NCCS(=O)(=O)O)cc3s2)CCS(=O)(=O)CC1)Cc1cc(F)c(F)cc1F.O=C(O)C(F)(F)F | Stable |
| C[N+](C)(C)CCNC(=O)COc1ccc2nc(C3(NC(=O)C[C@H](N)Cc4cc(F)c(F)cc4F)CCS(=O)(=O)CC3)sc2c1.O=C(O)C(F)(F)F.O=C([O-])C(F)(F)F | Stable |

====

Listing of recorded solubility kinetic by entry.
assay: Solubility in pH 7.4 buffer by nephelometry; format: physicochemical

The cases that follow already have their solubility kinetic on record.
| Chemical String | Property | Meas Value |
| --- | --- | --- |
| C[N+](C)(C)CCNC(=O)CCCCCOc1ccc2nc(C3(NC(=O)C[C@H](N)Cc4cc(F)c(F)cc4F)CCS(=O)(=O)CC3)sc2c1.O=C(O)C(F)(F)F.O=C([O-])C(F)(F)F | solubility kinetic | > 50 µM |
| N[C@@H](CC(=O)NC1(c2nc3ccc(OCCCCCC(=O)NC[C@H](O)[C@@H](O)[C@@H](O)[C@H](O)CO)cc3s2)CCS(=O)(=O)CC1)Cc1cc(F)c(F)cc1F.O=C(O)C(F)(F)F | solubility kinetic | 20 to 50 µM |
| N[C@@H](CC(=O)NC1(c2nc3ccc(OCCCCCC(=O)NCCS(=O)(=O)O)cc3s2)CCS(=O)(=O)CC1)Cc1cc(F)c(F)cc1F.O=C(O)C(F)(F)F | solubility kinetic | > 50 µM |
| N[C@@H](CC(=O)NC1(c2nc3ccc(OCC(=O)NC[C@H](O)[C@@H](O)[C@@H](O)[C@H](O)CO)cc3s2)CCS(=O)(=O)CC1)Cc1cc(F)c(F)cc1F.O=C(O)C(F)(F)F | solubility kinetic | > 50 µM |
| N[C@@H](CC(=O)NC1(c2nc3ccc(OCC(=O)NCCS(=O)(=O)O)cc3s2)CCS(=O)(=O)CC1)Cc1cc(F)c(F)cc1F.O=C(O)C(F)(F)F | solubility kinetic | > 50 µM |

Below: the item to evaluate.
# solubility kinetic (molecule: "C[N+](C)(C)CCNC(=O)COc1ccc2nc(C3(NC(=O)C[C@H](N)Cc4cc(F)c(F)cc4F)CCS(=O)(=O)CC3)sc2c1.O=C(O)C(F)(F)F.O=C([O-])C(F)(F)F" ) is > 50 µM

====

biological target: Dipeptidyl peptidase 4 (Mus musculus, UniProt P28843); assay: Inhibition of DPP4 in C57BL/6 mouse serum pre-incubated for 5 mins followed by Gly-Pro-7-AMC substrate addition by fluorescence based assay
Sequence (P28843 whole entry): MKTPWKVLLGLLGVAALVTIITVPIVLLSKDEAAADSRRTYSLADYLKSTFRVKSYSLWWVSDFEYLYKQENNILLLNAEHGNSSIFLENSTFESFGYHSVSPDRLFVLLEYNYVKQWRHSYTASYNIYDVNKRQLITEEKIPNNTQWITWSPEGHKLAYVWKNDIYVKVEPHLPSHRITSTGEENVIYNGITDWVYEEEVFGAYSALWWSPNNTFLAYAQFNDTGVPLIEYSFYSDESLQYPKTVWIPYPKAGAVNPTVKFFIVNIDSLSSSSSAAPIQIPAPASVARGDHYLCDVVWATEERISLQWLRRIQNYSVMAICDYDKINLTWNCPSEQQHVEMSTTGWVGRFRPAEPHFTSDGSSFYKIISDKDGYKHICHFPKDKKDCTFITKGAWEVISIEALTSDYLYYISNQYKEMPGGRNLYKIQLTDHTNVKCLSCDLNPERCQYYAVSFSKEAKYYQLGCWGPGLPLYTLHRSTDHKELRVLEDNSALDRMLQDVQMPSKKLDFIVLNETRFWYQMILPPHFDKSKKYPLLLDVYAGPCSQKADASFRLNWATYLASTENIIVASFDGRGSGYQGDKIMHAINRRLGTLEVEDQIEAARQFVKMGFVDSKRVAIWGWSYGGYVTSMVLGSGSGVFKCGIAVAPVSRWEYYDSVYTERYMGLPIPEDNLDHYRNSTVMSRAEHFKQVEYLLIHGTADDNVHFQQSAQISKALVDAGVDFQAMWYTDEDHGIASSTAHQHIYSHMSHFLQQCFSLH
Recorded pIC50, one value per entry.
pIC50 (log units): -log10 of the concentration in mol/L.

Here's what some known entries look like.
| Chemical String | pIC50 |
| --- | --- |
| N[C@@H](CC(=O)NC1(c2nc3ccc(OCCCCCCCCCCCC(=O)NC[C@H](O)[C@@H](O)[C@@H](O)[C@H](O)CO)cc3s2)CCS(=O)(=O)CC1)Cc1cc(F)c(F)cc1F | 6.77 |
| N[C@@H](CC(=O)NC1(c2nc3ccc(OCCCCCC(=O)NCCS(=O)(=O)O)cc3s2)CCS(=O)(=O)CC1)Cc1cc(F)c(F)cc1F.O=C(O)C(F)(F)F | 8.70 |
| N[C@@H](CC(=O)NC1(c2nc3ccc(OCC(=O)NCCS(=O)(=O)O)cc3s2)CCS(=O)(=O)CC1)Cc1cc(F)c(F)cc1F.O=C(O)C(F)(F)F | 8.96 |
| N[C@@H](CC(=O)NC1(c2nc3ccc(OCCCCCC(=O)NC[C@H](O)[C@@H](O)[C@@H](O)[C@H](O)CO)cc3s2)CCS(=O)(=O)CC1)Cc1cc(F)c(F)cc1F.O=C(O)C(F)(F)F | 8.46 |
| C[N+](C)(C)CCNC(=O)CCCCCCCCCCCOc1ccc2nc(C3(NC(=O)C[C@H](N)Cc4cc(F)c(F)cc4F)CCS(=O)(=O)CC3)sc2c1 | 6.94 |

// next entry
The reported Dipeptidyl peptidase 4 (Mus musculus, UniProt P28843) pIC50 of "C[N+](C)(C)CCNC(=O)CCCCCOc1ccc2nc(C3(NC(=O)C[C@H](N)Cc4cc(F)c(F)cc4F)CCS(=O)(=O)CC3)sc2c1.O=C(O)C(F)(F)F.O=C([O-])C(F)(F)F" is 8.52

====

test: Stability in mouse intestinal S9 fractions assessed as phase I and phase II enzymes-mediated generation of systemic metabolites at 0.1 uM incubated at 37 degC for 10 mins by LC-MS/MS analysis; type: ADME, subcellular, Intestine, S9 fraction; details: s9, 10 min

| Chemical String | Stability |
| --- | --- |
| N[C@@H](CC(=O)NC1(c2nc3ccc(OCC(=O)NCCS(=O)(=O)O)cc3s2)CCS(=O)(=O)CC1)Cc1cc(F)c(F)cc1F.O=C(O)C(F)(F)F | Stable |
| C[N+](C)(C)CCNC(=O)COc1ccc2nc(C3(NC(=O)C[C@H](N)Cc4cc(F)c(F)cc4F)CCS(=O)(=O)CC3)sc2c1.O=C(O)C(F)(F)F.O=C([O-])C(F)(F)F | Stable |
| O=c1ccc2ccc(O)cc2o1 | Unstable |
| C[C@]12CC[C@H]3[C@@H](CCC4=CC(=O)CC[C@@]43C)[C@@H]1CC[C@@H]2O | Unstable |

====

assay: Apparent permeability from apical to basolateral side in human Caco2 cells at 20 uM incubated for […] by LC-MS/MS analysis; format: ADME, cell-based; settings: Caco-2
Parameter: Papp A→B at […], 20 µM. Scope: all listed entries.
Hi! Could you send only the number? It should be in ×10⁻⁶ cm/s, unit omitted.

Below, 3 compounds whose answers are already recorded.
| Chemical String | Unit Of Measurement | Papp A→B at […], 20 µM |
| --- | --- | --- |
| N[C@@H](CC(=O)NC1(c2nc3ccc(OCC(=O)NCCS(=O)(=O)O)cc3s2)CCS(=O)(=O)CC1)Cc1cc(F)c(F)cc1F.O=C(O)C(F)(F)F | ×10⁻⁶ cm/s | 0.04 |
| N[C@@H](CC(=O)NC1(c2nc3ccc(OCCCCCC(=O)NC[C@H](O)[C@@H](O)[C@@H](O)[C@H](O)CO)cc3s2)CCS(=O)(=O)CC1)Cc1cc(F)c(F)cc1F.O=C(O)C(F)(F)F | ×10⁻⁶ cm/s | 0.02 |
| N[C@@H](CC(=O)NC1(c2nc3ccc(OCCCCCC(=O)NCCS(=O)(=O)O)cc3s2)CCS(=O)(=O)CC1)Cc1cc(F)c(F)cc1F.O=C(O)C(F)(F)F | ×10⁻⁶ cm/s | 0.002 |

Entry "N[C@@H](CC(=O)N1CCn2c(nnc2C(F)(F)F)C1)Cc1cc(F)c(F)cc1F" , Papp A→B at […], 20 µM reported as 0.25
